- System Name: WT1 ZF2-4 p.Gln447Pro (Homo sapiens (cDNA from A549 cells), UniProt P19544-2 334-423, Q357P)
- Sequence (P19544 other isoform, or with tags, fused parts or gaps Q357P | p.Q447P p.Q447P): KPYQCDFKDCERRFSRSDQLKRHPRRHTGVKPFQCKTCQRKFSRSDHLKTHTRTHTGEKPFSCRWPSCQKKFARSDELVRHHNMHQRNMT
- Protocol Details: MST; 50 mM Na2HPO4.12H2O, 150 mM NaCl, 0.005% Tween; pH not stated; room temperature; 80 nM DNA; protein from 1-4 mM (highest) downward
- Condition Info: protein: recombinant; tags: no tag stated; label: 5' Cyanine5; single strand

[
  {
    "Binder": "GTGGAGGCGGCGGGGGCGGCAGCAACAG (ssDNA) [EGR1 DNA motif, Cy5 oligo]",
    "Kd [µM]": 24.9
  }
]
